Molecular target: UniProt Q15746
Sequence (Q15746 whole entry, looked up): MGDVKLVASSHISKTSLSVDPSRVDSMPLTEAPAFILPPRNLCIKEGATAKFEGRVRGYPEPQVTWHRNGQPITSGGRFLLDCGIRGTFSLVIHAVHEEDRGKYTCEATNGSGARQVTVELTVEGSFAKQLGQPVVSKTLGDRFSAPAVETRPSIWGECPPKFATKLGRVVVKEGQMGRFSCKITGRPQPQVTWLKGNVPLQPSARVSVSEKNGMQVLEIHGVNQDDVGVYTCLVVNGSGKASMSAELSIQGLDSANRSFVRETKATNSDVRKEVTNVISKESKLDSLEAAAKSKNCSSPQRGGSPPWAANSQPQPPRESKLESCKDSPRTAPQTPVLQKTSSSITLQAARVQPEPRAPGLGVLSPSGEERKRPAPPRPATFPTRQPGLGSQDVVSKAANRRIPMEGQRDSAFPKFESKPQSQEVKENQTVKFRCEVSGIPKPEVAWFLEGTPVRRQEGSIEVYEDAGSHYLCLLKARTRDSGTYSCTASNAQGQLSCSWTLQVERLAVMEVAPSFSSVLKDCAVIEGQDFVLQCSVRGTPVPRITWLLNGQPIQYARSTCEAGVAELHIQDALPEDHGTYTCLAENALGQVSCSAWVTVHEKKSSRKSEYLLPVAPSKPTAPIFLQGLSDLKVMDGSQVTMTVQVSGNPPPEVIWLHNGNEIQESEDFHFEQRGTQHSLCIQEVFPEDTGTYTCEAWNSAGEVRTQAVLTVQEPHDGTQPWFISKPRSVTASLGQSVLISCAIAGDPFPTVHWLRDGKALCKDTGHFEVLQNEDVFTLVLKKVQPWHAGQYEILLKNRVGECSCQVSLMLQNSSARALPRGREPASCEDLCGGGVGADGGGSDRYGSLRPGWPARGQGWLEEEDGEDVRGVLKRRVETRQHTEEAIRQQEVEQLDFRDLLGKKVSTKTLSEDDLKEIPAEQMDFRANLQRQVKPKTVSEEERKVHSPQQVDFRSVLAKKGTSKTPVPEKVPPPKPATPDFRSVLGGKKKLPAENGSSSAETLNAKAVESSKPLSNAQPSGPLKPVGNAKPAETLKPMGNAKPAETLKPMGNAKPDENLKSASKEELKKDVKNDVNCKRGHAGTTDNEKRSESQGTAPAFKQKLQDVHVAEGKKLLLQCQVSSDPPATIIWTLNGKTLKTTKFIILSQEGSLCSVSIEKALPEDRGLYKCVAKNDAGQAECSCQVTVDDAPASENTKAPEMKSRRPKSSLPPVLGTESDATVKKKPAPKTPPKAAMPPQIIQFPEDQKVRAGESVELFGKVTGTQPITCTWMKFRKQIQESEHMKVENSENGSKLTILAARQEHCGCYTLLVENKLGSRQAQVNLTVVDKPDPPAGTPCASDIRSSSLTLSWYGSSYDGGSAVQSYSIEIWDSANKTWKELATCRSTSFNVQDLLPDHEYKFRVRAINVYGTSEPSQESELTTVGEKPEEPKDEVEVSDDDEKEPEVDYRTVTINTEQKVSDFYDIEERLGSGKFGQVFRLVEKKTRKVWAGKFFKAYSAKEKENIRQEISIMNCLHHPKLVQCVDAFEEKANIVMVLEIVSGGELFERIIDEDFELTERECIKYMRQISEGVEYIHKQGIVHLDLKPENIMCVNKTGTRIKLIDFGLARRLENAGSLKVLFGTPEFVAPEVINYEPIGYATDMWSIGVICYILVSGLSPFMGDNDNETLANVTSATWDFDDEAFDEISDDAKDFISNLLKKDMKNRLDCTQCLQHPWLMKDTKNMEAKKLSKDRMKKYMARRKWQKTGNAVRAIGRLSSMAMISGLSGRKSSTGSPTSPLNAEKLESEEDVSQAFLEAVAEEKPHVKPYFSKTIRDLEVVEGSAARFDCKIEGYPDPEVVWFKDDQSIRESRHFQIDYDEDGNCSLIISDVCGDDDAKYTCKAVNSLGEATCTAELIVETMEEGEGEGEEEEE
Experiment: radiometric filter-binding kinase assay, Kinase HotSpot
Settings: compound 0.5 µM; ATP 10 µM
Measured attribute: residual activity (%)
Give your result in % as a bare value.

Known residual activity results, listed for orientation:
- Line notation: "O=c1c(-c2ccc(F)cc2)c(-c2ccncc2)[nH]n1-c1ccc(Cl)cc1"
  Recorded value: 101
- Line notation: "Cc1cc(Nc2nc(-c3ccccc3)nc3ccccc23)n[nH]1"
  Recorded value: 60.2
- Line notation: "N#C/C(=C1/Nc2ccccc2S1)c1ccnc(NCCc2cccnc2)n1"
  Recorded value: 97.9

QUERY: Tell me the measured residual activity of COc1cc2c(Nc3ccc(Br)cc3F)ncnc2cc1OCC1CCN(C)CC1 , please.
RESULT: 94.2

QUERY: What about this molecule? COc1cc2c(N3CCN(C(=O)Nc4ccc(OC(C)C)cc4)CC3)ncnc2cc1OCCCN1CCCCC1
RESULT: 96.6

QUERY: Could you do the same for COc1cccc(-c2cc(=O)c3ccccc3o2)c1N , please?
RESULT: 98.9

QUERY: Item: N#CCCc1ccc2c(c1)-c1[nH]c3ccc([N+](=O)[O-])cc3c1CC(=O)N2
RESULT: 95.2

QUERY: Repeat with COc1cc2ncnc(Nc3ccc(O)c(Br)c3)c2cc1OC
RESULT: 84.6

QUERY: # iterate: O=C(O)c1ccc2c3c1cccc3c(=O)n1c3ccccc3nc21
RESULT: 89.8

QUERY: One more molecule: c1ccc(-c2cnc(Nc3ccc(OCCN4CCCC4)cc3)s2)cc1
RESULT: 96.9

QUERY: Entry to check: CCCCc1c(-c2ccc(O)cc2)[nH]c2nccnc12
RESULT: 101

QUERY: Same for O=C(c1ccccc1)c1ccc(N2CCOCC2)cc1O
RESULT: 91.8

QUERY: How about O=c1c2ccccc2[nH]c(=S)n1CCN1CCC(=C(c2ccc(F)cc2)c2ccc(F)cc2)CC1 ?
RESULT: 96.2

QUERY: One more molecule: N/C(=N\N=C/c1ccc(-c2cccc([N+](=O)[O-])c2)o1)N[N+](=O)[O-]
RESULT: 92.5

QUERY: Now consider Cn1cc(/C=C2\C(=O)Nc3ccc(S(N)(=O)=O)cc32)c2ccccc21 .
RESULT: 95

###

Biological target: GRK5 (human)
Assay: radiometric filter-binding kinase assay, Kinase HotSpot
Settings: compound 0.5 µM; ATP 10 µM
Measured attribute: residual activity (%)
Express your answer in %, writing the number without its unit.

QUERY: Missing value: residual activity, GRK5 (human), entry N#CCCc1ccc2c(c1)-c1[nH]c3ccc([N+](=O)[O-])cc3c1CC(=O)N2 . Fill in?
RESULT: 103

QUERY: Further, for O=C(O)c1ccc2c3c1cccc3c(=O)n1c3ccccc3nc21 ?
RESULT: 97.1

QUERY: # repeat for Cn1cc(/C=C2\C(=O)Nc3ccc(S(N)(=O)=O)cc32)c2ccccc21
RESULT: 86.3

QUERY: Likewise for COc1cc2c(Nc3ccc(Br)cc3F)ncnc2cc1OCC1CCN(C)CC1 ?
RESULT: 95.8

QUERY: Now consider CCCCc1c(-c2ccc(O)cc2)[nH]c2nccnc12 .
RESULT: 104

###

Molecular target: CDK5 CDK5R1 p35 (human) (UniProt Q00535+Q15078)
Assay: radiometric filter-binding kinase assay, Kinase HotSpot
Details: compound 0.5 µM; ATP 10 µM
Measured attribute: residual activity (%)
Write the answer as a number in %, unit excluded.

Below, 3 compounds whose answers are already recorded.
- Line notation: "O=C1NC(=O)c2c1c1c3ccccc3[nH]c1c1[nH]c3cc(Br)ccc3c21"
  residual activity / %: 44.1
- Line notation: "N#C/C(=C1/Nc2ccccc2S1)c1ccnc(NCCc2cccnc2)n1"
  residual activity / %: 97.2
- Line notation: "CN[C@@H]1C[C@H]2O[C@@](C)([C@@H]1OC)n1c3ccccc3c3c4c(c5c6ccccc6n2c5c31)C(=O)NC4"
  residual activity / %: 1.92

QUERY: # get_value(readout='residual activity', item= O=C(O)c1ccc2c3c1cccc3c(=O)n1c3ccccc3nc21 )
RESULT: 88

QUERY: Also need O=c1cc(N2CCOCC2)oc2c(-c3ccccc3)cccc12 , thanks.
RESULT: 107

QUERY: Then N#CCCc1ccc2c(c1)-c1[nH]c3ccc([N+](=O)[O-])cc3c1CC(=O)N2 ?
RESULT: 2.6

QUERY: Also check CC(C)(C)n1nc(Cc2cccc3ccccc23)c2c(N)ncnc21
RESULT: 95.6

QUERY: Please give the result for COc1cc2c(N3CCN(C(=O)Nc4ccc(OC(C)C)cc4)CC3)ncnc2cc1OCCCN1CCCCC1 too.
RESULT: 99.4

###

Molecular target: CSNK2A2 (human) (UniProt P19784)
Sequence (P19784 whole entry, looked up): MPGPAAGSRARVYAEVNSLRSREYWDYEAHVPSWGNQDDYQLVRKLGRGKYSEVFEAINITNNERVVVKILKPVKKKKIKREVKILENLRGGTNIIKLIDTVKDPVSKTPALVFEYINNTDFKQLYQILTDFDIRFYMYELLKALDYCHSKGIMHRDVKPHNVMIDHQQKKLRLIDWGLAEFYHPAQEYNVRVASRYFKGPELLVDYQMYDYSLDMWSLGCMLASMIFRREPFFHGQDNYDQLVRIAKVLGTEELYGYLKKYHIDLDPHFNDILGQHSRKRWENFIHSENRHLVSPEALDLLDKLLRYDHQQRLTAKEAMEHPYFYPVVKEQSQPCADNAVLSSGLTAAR
Test: radiometric filter-binding kinase assay, Kinase HotSpot
Conditions: compound 0.5 µM; ATP 10 µM
Measured attribute: residual activity (%)
Write the value in % as a bare number.

- Line notation: "O=c1cc(N2CCOCC2)oc2c(-c3ccccc3)cccc12"
  Assay target: "CSNK2A2 (human) (UniProt P19784)"
  Measure unit: "%"
  residual activity: 93.9
- Line notation: "CCOc1cc2ncnc(Nc3cccc(Br)c3)c2cc1OCC"
  Assay target: "CSNK2A2 (human) (UniProt P19784)"
  Measure unit: "%"
  residual activity: 93.8
- Line notation: "N#Cc1c(NC(=O)c2cccc3ccccc23)sc2c1CCCC2"
  Assay target: "CSNK2A2 (human) (UniProt P19784)"
  Measure unit: "%"
  residual activity: 92.2
- Line notation: "N#C/C(=C1/Nc2ccccc2S1)c1ccnc(NCCc2cccnc2)n1"
  Assay target: "CSNK2A2 (human) (UniProt P19784)"
  Measure unit: "%"
  residual activity: 27.1
- Line notation: "O=C(c1ccccc1)c1ccc(N2CCOCC2)cc1O"
  Assay target: "CSNK2A2 (human) (UniProt P19784)"
  Measure unit: "%"
  residual activity: 96.8

QUERY: What is its residual activity for CSNK2A2 (human) (UniProt P19784)? Entry: N/C(=N\N=C/c1ccc(-c2cccc([N+](=O)[O-])c2)o1)N[N+](=O)[O-]
RESULT: 107

QUERY: Another: c1ccc(-c2cnc(Nc3ccc(OCCN4CCCC4)cc3)s2)cc1
RESULT: 92.1

QUERY: Next entry: CCCCc1c(-c2ccc(O)cc2)[nH]c2nccnc12
RESULT: 94.7

###

Biological target: SIK2 (human) (UniProt Q9H0K1)
Sequence (Q9H0K1 whole entry, looked up): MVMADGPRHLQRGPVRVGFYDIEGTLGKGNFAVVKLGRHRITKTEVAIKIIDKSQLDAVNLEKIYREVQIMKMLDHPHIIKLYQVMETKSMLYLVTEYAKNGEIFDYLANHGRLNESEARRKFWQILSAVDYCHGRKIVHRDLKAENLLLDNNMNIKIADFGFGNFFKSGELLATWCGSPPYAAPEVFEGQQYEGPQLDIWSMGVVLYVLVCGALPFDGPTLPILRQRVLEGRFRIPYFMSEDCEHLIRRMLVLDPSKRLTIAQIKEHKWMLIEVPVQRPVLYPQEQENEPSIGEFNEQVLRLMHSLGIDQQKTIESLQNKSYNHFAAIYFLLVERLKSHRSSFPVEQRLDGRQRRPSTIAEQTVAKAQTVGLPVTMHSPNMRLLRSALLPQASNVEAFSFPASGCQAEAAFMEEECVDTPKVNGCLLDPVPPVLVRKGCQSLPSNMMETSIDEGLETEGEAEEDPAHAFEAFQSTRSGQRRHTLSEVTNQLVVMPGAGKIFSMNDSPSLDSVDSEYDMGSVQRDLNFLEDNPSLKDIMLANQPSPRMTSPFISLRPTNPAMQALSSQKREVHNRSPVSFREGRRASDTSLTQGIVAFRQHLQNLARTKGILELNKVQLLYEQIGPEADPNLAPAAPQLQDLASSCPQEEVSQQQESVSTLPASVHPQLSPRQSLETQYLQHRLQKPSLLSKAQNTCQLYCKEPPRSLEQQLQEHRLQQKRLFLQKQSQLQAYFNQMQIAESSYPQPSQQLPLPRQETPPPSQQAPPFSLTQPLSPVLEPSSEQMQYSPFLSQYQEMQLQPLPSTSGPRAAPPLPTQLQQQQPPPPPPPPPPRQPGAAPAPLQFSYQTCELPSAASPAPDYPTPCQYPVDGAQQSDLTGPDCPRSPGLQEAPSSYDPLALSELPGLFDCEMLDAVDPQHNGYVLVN
Assay: radiometric filter-binding kinase assay, Kinase HotSpot
Settings: compound 0.5 µM; ATP 10 µM
Measured attribute: residual activity (%)
Output spec: scalar in %, unitless text.

Below are worked cases with known answers.
- Line notation: "CCc1nc(-c2ccc(OC)cc2)[nH]c1-c1ccncc1"
  Measured attribute: "residual activity"
  Recorded value: 88.3
- Line notation: "Cn1cc(/C=C2\\C(=O)Nc3ccc(S(N)(=O)=O)cc32)c2ccccc21"
  Measured attribute: "residual activity"
  Recorded value: 81.4
- Line notation: "COc1cc2c(cc1OC)-c1[nH]nc(Nc3cccc(F)c3)c1C2"
  Measured attribute: "residual activity"
  Recorded value: 38.6

QUERY: Would you mind telling me what residual activity value was observed for N#Cc1c(NC(=O)c2cccc3ccccc23)sc2c1CCCC2 ?
RESULT: 101

###

Biological target: MAP2K2 (human) (UniProt P36507)
Sequence (P36507 whole entry, looked up): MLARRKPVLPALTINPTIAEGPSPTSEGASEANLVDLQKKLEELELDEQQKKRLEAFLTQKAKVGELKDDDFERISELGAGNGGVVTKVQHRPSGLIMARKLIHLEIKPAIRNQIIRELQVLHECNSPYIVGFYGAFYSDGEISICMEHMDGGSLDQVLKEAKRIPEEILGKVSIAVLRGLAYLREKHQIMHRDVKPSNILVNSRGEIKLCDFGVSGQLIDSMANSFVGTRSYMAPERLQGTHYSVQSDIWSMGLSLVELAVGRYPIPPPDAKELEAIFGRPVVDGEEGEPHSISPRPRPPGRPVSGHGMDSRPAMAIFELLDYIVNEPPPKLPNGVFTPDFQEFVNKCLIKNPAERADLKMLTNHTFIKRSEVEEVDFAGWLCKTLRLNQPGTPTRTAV
Experiment: radiometric filter-binding kinase assay, Kinase HotSpot
Settings: compound 0.5 µM; ATP 10 µM
# residual activity listing for each entry below
// return numeric value only (unit: %, not printed)

- Line notation: "N/C(=N\\N=C/c1ccc(-c2cccc([N+](=O)[O-])c2)o1)N[N+](=O)[O-]"
  Measured attribute: "residual activity"
  Measure unit: "%"
  Recorded value: 78.2
- Line notation: "Nc1ncnc2c1cnn2-c1ccccc1"
  Measured attribute: "residual activity"
  Measure unit: "%"
  Recorded value: 96.9
- Line notation: "COc1cc2c(cc1OC)-c1[nH]nc(Nc3cccc(F)c3)c1C2"
  Measured attribute: "residual activity"
  Measure unit: "%"
  Recorded value: 99.8

QUERY: Recall the recorded residual activity for N#CCCc1ccc2c(c1)-c1[nH]c3ccc([N+](=O)[O-])cc3c1CC(=O)N2 with MAP2K2 (human) (UniProt P36507) and state it.
RESULT: 90.3

QUERY: Here is the next compound: FC(F)(F)c1ccc(/C=C/c2nc(COc3ccc(CCCCn4ccnn4)cc3)co2)cc1
RESULT: 114

###

Biological target: RPS6KB1 (human) (UniProt P23443)
Sequence (P23443 whole entry, looked up): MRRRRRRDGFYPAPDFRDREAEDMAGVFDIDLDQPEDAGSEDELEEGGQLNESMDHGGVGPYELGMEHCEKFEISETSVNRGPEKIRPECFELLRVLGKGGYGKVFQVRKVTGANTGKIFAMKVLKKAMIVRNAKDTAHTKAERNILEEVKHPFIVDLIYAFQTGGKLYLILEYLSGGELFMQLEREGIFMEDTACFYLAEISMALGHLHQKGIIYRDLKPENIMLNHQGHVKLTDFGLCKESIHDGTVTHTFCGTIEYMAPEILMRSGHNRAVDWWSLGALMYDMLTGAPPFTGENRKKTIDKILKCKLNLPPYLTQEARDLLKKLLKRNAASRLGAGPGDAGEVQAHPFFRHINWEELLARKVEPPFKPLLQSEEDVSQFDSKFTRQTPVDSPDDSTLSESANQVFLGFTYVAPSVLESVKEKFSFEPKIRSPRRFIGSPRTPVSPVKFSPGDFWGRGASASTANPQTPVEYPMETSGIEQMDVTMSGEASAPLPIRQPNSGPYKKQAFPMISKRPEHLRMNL
Experiment: radiometric filter-binding kinase assay, Kinase HotSpot
Settings: compound 0.5 µM; ATP 10 µM
Measured residual activity, listed per entry for reference.
State just the number; it will be interpreted in %.

- Line notation: "COc1cc2ncnc(Nc3ccc(O)c(Br)c3)c2cc1OC"
  Assay target: "RPS6KB1 (human) (UniProt P23443)"
  residual activity (%): 82.1
- Line notation: "CCCCc1c(-c2ccc(O)cc2)[nH]c2nccnc12"
  Assay target: "RPS6KB1 (human) (UniProt P23443)"
  residual activity (%): 105
- Line notation: "O=c1cc(N2CCOCC2)oc2c(-c3ccccc3)cccc12"
  Assay target: "RPS6KB1 (human) (UniProt P23443)"
  residual activity (%): 101
- Line notation: "O=C1NC(=O)c2c1c1c3ccccc3[nH]c1c1[nH]c3cc(Br)ccc3c21"
  Assay target: "RPS6KB1 (human) (UniProt P23443)"
  residual activity (%): 45.2
- Line notation: "N#Cc1c(NC(=O)c2cccc3ccccc23)sc2c1CCCC2"
  Assay target: "RPS6KB1 (human) (UniProt P23443)"
  residual activity (%): 105
- Line notation: "Cc1cc(Nc2nc(-c3ccccc3)nc3ccccc23)n[nH]1"
  Assay target: "RPS6KB1 (human) (UniProt P23443)"
  residual activity (%): 60.4
- Line notation: "O=c1c2ccccc2[nH]c(=S)n1CCN1CCC(=C(c2ccc(F)cc2)c2ccc(F)cc2)CC1"
  Assay target: "RPS6KB1 (human) (UniProt P23443)"
  residual activity (%): 97.9
- Line notation: "N#C/C(=C1/Nc2ccccc2S1)c1ccnc(NCCc2cccnc2)n1"
  Assay target: "RPS6KB1 (human) (UniProt P23443)"
  residual activity (%): 98.2

QUERY: Need residual activity of COc1cccc(-c2cc(=O)c3ccccc3o2)c1N , thanks.
RESULT: 98

QUERY: Also, N/C(=N\N=C/c1ccc(-c2cccc([N+](=O)[O-])c2)o1)N[N+](=O)[O-] please.
RESULT: 100

QUERY: Another compound: CCc1nc(-c2ccc(OC)cc2)[nH]c1-c1ccncc1
RESULT: 98.4

From: the kinase profiling compilation of Christmann-Franck et al. (2016)
